targetOrTestSystem: human TLR8 (Homo sapiens)
Sequence (Q9NR97 27-1041): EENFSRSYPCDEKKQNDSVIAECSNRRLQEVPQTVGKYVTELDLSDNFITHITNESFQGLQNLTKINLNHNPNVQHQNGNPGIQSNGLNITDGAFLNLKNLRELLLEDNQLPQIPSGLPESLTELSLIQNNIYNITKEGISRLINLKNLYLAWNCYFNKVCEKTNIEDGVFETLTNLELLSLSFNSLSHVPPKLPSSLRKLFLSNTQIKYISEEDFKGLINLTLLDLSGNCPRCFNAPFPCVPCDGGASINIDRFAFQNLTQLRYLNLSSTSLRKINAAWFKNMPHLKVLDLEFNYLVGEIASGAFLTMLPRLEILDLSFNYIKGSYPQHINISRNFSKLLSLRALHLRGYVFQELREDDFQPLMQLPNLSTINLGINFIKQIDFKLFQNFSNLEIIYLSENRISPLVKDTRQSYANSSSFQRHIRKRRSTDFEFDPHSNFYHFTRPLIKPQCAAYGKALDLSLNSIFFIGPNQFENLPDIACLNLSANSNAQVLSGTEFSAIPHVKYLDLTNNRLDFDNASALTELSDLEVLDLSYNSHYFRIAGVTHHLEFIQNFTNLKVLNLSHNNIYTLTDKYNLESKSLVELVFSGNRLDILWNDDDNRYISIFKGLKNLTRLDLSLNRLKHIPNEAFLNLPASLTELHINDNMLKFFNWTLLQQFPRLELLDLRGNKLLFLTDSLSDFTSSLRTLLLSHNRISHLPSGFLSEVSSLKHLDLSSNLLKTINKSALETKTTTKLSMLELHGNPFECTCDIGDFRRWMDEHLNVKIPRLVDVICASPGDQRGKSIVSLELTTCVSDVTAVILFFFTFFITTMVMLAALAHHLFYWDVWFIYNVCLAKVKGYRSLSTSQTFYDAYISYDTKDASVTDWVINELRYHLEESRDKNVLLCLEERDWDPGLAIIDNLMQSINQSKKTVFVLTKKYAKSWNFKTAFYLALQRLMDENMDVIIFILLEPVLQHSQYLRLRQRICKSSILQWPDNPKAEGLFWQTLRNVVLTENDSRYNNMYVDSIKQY
assayName: TLR8 inhibition reporter assay (HEK-Blue SEAP reporter, R848 stimulation)
conditionDetails: HEK-Blue cells overexpressing human TLR8, SEAP reporter, R848 15.9 μM, 22 hour incubation
pIC50: −log10 of the molar value.
Would you please tag the item Condition met when its pIC50 is 8 or above, and Condition not met when it is below?

Use the examples below as a reference point.
{"columns": ["compound", "categoryLabel"],
 "data": [
  ["Cc1cc(-c2[nH]c3ccc(C4CCN(CC(=O)N(C)C)CC4)cc3c2C(C)C)cn(Cc2ccccc2)c1=O", "Condition not met"],
  ["Cc1cc(-c2[nH]c3ccc(C4CCN(C5CCC(C(F)(F)F)CC5)CC4)cc3c2C(C)C)cn(C)c1=O (stereo not shown) [Example 231]", "Condition not met"],
  ["Cc1cc(-c2[nH]c3ccc(C4CCN(CC5CC5(F)F)CC4)cc3c2C(C)C)cn(C)c1=O (stereo not shown)", "Condition met"]
]}

Asked: Assess whether reported pIC50 for Cc1c(-c2[nH]c3ccc(C4CCN(C(=O)CN(C)C)CC4)cc3c2C(C)C)nn(C)c(=O)c1C sits at 8 or higher.
Given back: Condition not met

Asked: Assess whether reported pIC50 for COc1cc(-c2[nH]c3ccc(C4CCN(C(=O)CN(C)C)CC4)cc3c2C(C)C)c(C)n(C)c1=O sits at 8 or higher.
Given back: Condition not met

Asked: Assess whether reported pIC50 for CC(C)CN1CCC(c2ccc3[nH]c(-c4cc(-c5ccccc5)c(=O)n(C)c4)c(C(C)C)c3c2)CC1 sits at 8 or higher.
Given back: Condition met

Asked: Assess whether reported pIC50 for CC(C)c1c(-c2ccc(=O)n(C(C)C)c2)[nH]c2ccc(C3CCNCC3)cc12 sits at 8 or higher.
Given back: Condition not met

Asked: Assess whether reported pIC50 for COc1cc(-c2[nH]c3ccc(C4CCN(C(=O)CN(C)C)CC4)cc3c2C(C)C)cn(C)c1=O sits at 8 or higher.
Given back: Condition met
